- Test system: DFO2036
- Assay text: qHTS profiling for inhibitors of Plasmodium falciparum proliferation (AID 504749); note: nearly all actives have a fitted effect of over 60% in size
- Measurement context: P. falciparum in erythrocytes, SYBR Green DNA, 72 h; series mostly up to 28.7 µM
Results filed as inconclusive are left out. Activity calls are given as the source filed them. Calls come from the whole dose curve; as a rule, active = well fitted inhibition curve with a large enough effect; inconclusive = small, poorly fitted or top-dose-only effect; inactive = flat fitted curve, though single readings scatter.
Use one of these outcomes when replying: active, inactive

{"columns": ["Compound", "Class"],
 "data": [
  ["CCOc1nc2cccc(C(=O)O)c2n1Cc1ccc(-c2ccccc2-c2nn[nH]n2)cc1", "inactive"],
  ["CCCCN1CCCC[C@H]1C(=O)Nc1c(C)cccc1C", "inactive"],
  ["CC(O)CN(CCN(CC(C)O)CC(C)O)CC(C)O (stereo not given)", "inactive"],
  ["O=C(O)c1ccccc1-c1ccc(C(F)(F)F)cc1", "inactive"],
  ["Cc1ncc(COP(=O)(O)O)c(C=O)c1O", "inactive"]
]}

In this assay, the call recorded for Cc1cc(N)c2ccccc2[n+]1CCCCCCCCCC[n+]1c(C)cc(N)c2ccccc21 was what?
active

In this assay, the call recorded for O=c1[nH]c(=O)c2[nH]c(=O)[nH]c2[nH]1 was what?
inactive

----------
- Assay text: qHTS of pediatric cancer cell lines to identify multiple opportunities for drug repurposing: Primary screen for U-2 OS cells (AID 1347096); note: nearly all actives have a fitted effect of over 50% in size
- Measurement context: U-2 OS viability, CellTiter-Glo luminescence, 48 h; series mostly up to 46 µM
Records with an inconclusive call do not appear. Active and inactive are the calls of the source. The call rests on the fitted dose curve; in most records, active means well fitted cell-killing curve with a large enough effect; inconclusive means small, poorly fitted or top-dose-only effect; inactive means flat fitted curve, though single readings scatter.
Endpoint: activity change, negative = cytotoxic

{"columns": ["Compound", "activity change, negative = cytotoxic"],
 "data": [
  ["CCCCN1CCCC[C@H]1C(=O)Nc1c(C)cccc1C", "inactive"],
  ["O=C1Nc2ccc(Cl)cc2[C@@](C#CC2CC2)(C(F)(F)F)O1", "inactive"],
  ["CC1(C)S[C@@H]2[C@H](NC(=O)Cc3ccccc3)C(=O)N2[C@H]1C(=O)O (tested in a mixture with another compound)", "inactive"],
  ["Cc1cccc(Nc2cc(Cl)nc(SCC(=O)O)n2)c1C", "inactive"]
]}

Field request: activity change, negative = cytotoxic | item: NC1CCN(c2cccc(Cl)n2)CC1
inactive

Field request: activity change, negative = cytotoxic | item: Nc1ccc(S(=O)(=O)Nc2nccs2)cc1
inactive

Field request: activity change, negative = cytotoxic | item: CC(=O)NC(Cc1ccccc1)C(=O)O (stereo not given)
inactive

Field request: activity change, negative = cytotoxic | item: O=C1c2c(O)cccc2Cc2cccc(O)c21
inactive

Field request: activity change, negative = cytotoxic | item: CC1(C)[C@@H]2CC[C@@]1(C)C(=O)C2
inactive

Field request: activity change, negative = cytotoxic | item: C[C@H]1O[C@H](O[C@H]2[C@H](O)[C@@H](O)[C@@H](O[C@H]3[C@H](O)[C@@H](O)[C@H](O)O[C@@H]3CO)O[C@@H]2CO)[C@H](O)[C@@H](O)[C@@H]1N[C@H]1C=C(CO)[C@@H](O)[C@H](O)[C@H]1O
inactive

----------
- Tested on: CP194
- Assay text: qHTS profiling for inhibitors of Plasmodium falciparum proliferation (AID 504749); note: nearly all actives have a fitted effect of over 60% in size
- Measurement context: P. falciparum in erythrocytes, SYBR Green DNA, 72 h; series mostly up to 28.7 µM
Inconclusive results are not listed. Calls of active or inactive are those of the source. Calls follow the shape of the dose curve; as a rule, active = well fitted inhibition curve with a large enough effect; inconclusive = small, poorly fitted or top-dose-only effect; inactive = flat fitted curve, though single readings scatter.
Use one of these outcomes when replying: true (active), false (inactive)

Some solved cases for reference:
{"columns": ["Molecule", "Assayed target", "Class"],
 "data": [
  ["Cc1c(Cl)cccc1Nc1ccccc1C(=O)O", "CP194", "false"],
  ["CCCOC(=O)c1ccccc1", "CP194", "false"],
  ["NC(CSCC(=O)O)C(=O)O (stereo not drawn)", "CP194", "false"]
]}

In this assay, the call recorded for CCn1cc(C(=O)O)c(=O)c2cnc(N3CCNCC3)nc21 was what?
false

In this assay, the call recorded for CC(=O)Oc1ccc(C2(c3ccc(OC(C)=O)cc3)C(=O)Nc3ccccc32)cc1 was what?
false

In this assay, the call recorded for CC(O)COc1ccccc1 (stereo not drawn) was what?
false

In this assay, the call recorded for CC(C(O)c1ccc(O)cc1)N1CCC(Cc2ccccc2)CC1 (stereo not drawn) was what?
true

In this assay, the call recorded for CC12CCC(CC1)C(C)(C)O2 was what?
false

In this assay, the call recorded for Nc1ccc(S(=O)(=O)Nc2nccs2)cc1 was what?
false

In this assay, the call recorded for CC1=C(/C=C/C(C)=C/C=C/C(C)=C/C(=O)O)C(C)(C)CCC1 was what?
false

In this assay, the call recorded for N[C@@H](CSCCCO)C(=O)O was what?
false

In this assay, the call recorded for O=c1[nH]c(=O)c2[nH]c(=O)[nH]c2[nH]1 was what?
false

In this assay, the call recorded for CC(=O)CCC(=O)O was what?
false

In this assay, the call recorded for O=c1cc(CO)occ1O was what?
false

In this assay, the call recorded for Cc1ccc2nc(N)[nH]c(=O)c2c1Sc1ccncc1 was what?
false

In this assay, the call recorded for CCCCOc1cc(C(=O)OCCN(CC)CC)ccc1N was what?
false

In this assay, the call recorded for NCCNCCNCCNCCN was what?
false

In this assay, the call recorded for COc1ccccc1O was what?
false

In this assay, the call recorded for O=C(CCCN1CCN(c2ccccn2)CC1)c1ccc(F)cc1 was what?
false

----------
- Assayed target: Voltage-gated inwardly rectifying potassium channel KCNH2 (Homo sapiens) (UniProt Q12809)
- Sequence (Q12809 whole entry, looked up): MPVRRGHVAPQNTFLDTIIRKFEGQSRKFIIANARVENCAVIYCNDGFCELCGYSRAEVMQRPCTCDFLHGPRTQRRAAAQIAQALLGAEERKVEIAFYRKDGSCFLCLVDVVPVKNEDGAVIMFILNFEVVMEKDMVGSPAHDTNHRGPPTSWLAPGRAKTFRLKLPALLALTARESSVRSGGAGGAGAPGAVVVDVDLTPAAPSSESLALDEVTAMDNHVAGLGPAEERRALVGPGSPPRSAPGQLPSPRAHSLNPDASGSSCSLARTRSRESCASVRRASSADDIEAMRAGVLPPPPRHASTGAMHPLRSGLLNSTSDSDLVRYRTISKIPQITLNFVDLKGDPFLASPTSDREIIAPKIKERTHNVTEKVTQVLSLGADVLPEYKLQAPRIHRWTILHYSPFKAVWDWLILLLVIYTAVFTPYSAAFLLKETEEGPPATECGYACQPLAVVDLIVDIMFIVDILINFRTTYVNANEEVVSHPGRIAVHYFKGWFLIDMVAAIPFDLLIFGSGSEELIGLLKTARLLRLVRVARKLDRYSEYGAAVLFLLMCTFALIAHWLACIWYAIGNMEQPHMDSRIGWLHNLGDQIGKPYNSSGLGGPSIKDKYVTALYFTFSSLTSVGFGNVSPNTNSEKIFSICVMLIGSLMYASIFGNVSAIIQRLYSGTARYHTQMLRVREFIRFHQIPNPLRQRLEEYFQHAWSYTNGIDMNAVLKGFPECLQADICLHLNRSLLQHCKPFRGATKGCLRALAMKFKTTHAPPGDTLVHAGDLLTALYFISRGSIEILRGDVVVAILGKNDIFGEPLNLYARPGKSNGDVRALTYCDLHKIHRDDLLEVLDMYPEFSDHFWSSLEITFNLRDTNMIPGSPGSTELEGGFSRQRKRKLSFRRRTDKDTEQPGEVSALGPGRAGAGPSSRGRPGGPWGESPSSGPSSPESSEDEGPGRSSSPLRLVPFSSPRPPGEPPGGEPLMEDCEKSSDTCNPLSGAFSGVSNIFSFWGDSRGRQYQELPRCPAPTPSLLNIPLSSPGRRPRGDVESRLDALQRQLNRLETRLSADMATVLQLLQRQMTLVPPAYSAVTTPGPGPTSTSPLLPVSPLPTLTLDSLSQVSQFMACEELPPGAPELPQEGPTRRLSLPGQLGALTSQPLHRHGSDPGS
- Assay text: qHTS Assay for Small Molecule Inhibitors of the Human hERG Channel Activity (AID 588834);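 note: U2OS cells transduced with hERG by BacMam; top concentration of the series differs between compounds; lower thallium flux fluorescence means stronger hERG block; nearly all actives have a fitted effect of over 50% in size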
- Measurement context: U2OS BacMam hERG, FluxOR thallium flux fluorescence; series mostly up to 46.1 µM
Records with an inconclusive call do not appear. Calls of active or inactive are those of the source. Calls come from the whole dose curve; as a rule, active = well fitted inhibition curve with a large enough effect; inconclusive = small, poorly fitted or top-dose-only effect; inactive = flat fitted curve, though single readings scatter.
Endpoint: outcome

Worked examples follow.
{"columns": ["Molecule", "outcome"],
 "data": [
  ["CC(O)CN(CCN(CC(C)O)CC(C)O)CC(C)O (stereo unspecified)", "inactive"],
  ["CCN(CC)CCNC(=O)c1cc(Cl)c(N)cc1OC", "inactive"],
  ["NS(=O)(=O)c1cc2c(cc1Cl)NC(CSCc1ccccc1)=NS2(=O)=O", "inactive"],
  ["NC(=O)NC(=O)Cc1ccccc1", "inactive"],
  ["CO/N=C(\\C(=O)N[C@@H]1C(=O)N2C(C(=O)O)=C(CSc3nc(=O)c(O)nn3C)CS[C@H]12)c1csc(N)n1", "inactive"]
]}

Under Voltage-gated inwardly rectifying potassium channel KCNH2 (Homo sapiens) (UniProt Q12809): outcome value of CC(=O)Oc1ccc(C2(c3ccc(OC(C)=O)cc3)C(=O)Nc3ccccc32)cc1 ?
inactive

Under Voltage-gated inwardly rectifying potassium channel KCNH2 (Homo sapiens) (UniProt Q12809): outcome value of Cc1c(O)cccc1C(=O)N[C@@H](CSc1ccccc1)[C@H](O)CN1C[C@H]2CCCC[C@H]2C[C@H]1C(=O)NC(C)(C)C ?
inactive

Under Voltage-gated inwardly rectifying potassium channel KCNH2 (Homo sapiens) (UniProt Q12809): outcome value of Cc1c(Cl)cccc1Nc1ccccc1C(=O)O ?
inactive

----------
- Assayed target: Cytochrome P450 2C9 (Homo sapiens) (UniProt P11712)
- Sequence (P11712 whole entry, looked up): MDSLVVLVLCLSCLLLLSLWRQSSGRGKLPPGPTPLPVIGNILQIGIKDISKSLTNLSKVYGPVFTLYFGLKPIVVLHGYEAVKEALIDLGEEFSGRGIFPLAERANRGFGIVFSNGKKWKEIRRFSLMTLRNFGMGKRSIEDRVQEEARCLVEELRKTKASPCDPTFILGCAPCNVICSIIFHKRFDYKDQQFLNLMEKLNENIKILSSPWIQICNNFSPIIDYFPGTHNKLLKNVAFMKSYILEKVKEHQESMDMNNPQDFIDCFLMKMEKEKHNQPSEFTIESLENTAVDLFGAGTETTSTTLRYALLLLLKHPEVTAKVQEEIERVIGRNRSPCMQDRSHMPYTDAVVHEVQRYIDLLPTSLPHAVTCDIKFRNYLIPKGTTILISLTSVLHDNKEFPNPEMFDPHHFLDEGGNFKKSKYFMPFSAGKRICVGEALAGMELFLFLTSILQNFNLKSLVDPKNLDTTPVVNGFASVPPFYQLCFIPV
- Assay text: Cytochrome P450 family 2 subfamily C member 9 (CYP2C9) small molecule antagonists: luciferase biochemical (cell-free) qHTS assay (AID 1645842); note: nearly all actives have a fitted effect of over 55% in size
- Measurement context: P450-Glo CYP2C9 enzyme assay, luciferin luminescence; series mostly up to 57.4 µM
Records with an inconclusive call do not appear. Activity calls are given as the source filed them. Calls follow the shape of the dose curve; as a rule, active = well fitted inhibition curve with a large enough effect in the repeat runs; inconclusive = weak or mixed curves; inactive = no such curve, though single readings can be large or run the other way.
Use one of these outcomes when replying: active, inactive

Some solved cases for reference:
{"columns": ["Molecule", "Class"],
 "data": [
  ["O=C(O)c1ccccc1-c1ccc(C(F)(F)F)cc1", "inactive"],
  ["CCCCOc1cc(C(=O)OCCN(CC)CC)ccc1N", "inactive"],
  ["O=Cc1ccccc1C=O", "inactive"]
]}

In this assay, the call recorded for CCCCN(CCCC)CCCOC(=O)c1ccc(N)cc1 was what?
inactive

In this assay, the call recorded for COc1cc(C)c(Cc2cnc(N)nc2N)cc1OC was what?
inactive

In this assay, the call recorded for CCCCC(CC)COC(=O)c1ccccc1O (stereo not given) was what?
inactive

In this assay, the call recorded for O=C1O[C@H](CO)[C@@H](O)[C@H](O)[C@H]1O was what?
inactive

In this assay, the call recorded for CC1(C)OC(=O)NC1=O was what?
inactive

In this assay, the call recorded for C=CCn1c(=O)n([C@@H]2O[C@H](CO)[C@@H](O)[C@H]2O)c2nc(N)[nH]c(=O)c21 was what?
inactive

In this assay, the call recorded for CCCn1cnc2c1c(=O)n(CCCCC(C)=O)c(=O)n2C was what?
inactive

----------
- Tested on: CP185
- Assay text: qHTS profiling for inhibitors of Plasmodium falciparum proliferation (AID 504749); note: nearly all actives have a fitted effect of over 60% in size
- Measurement context: P. falciparum in erythrocytes, SYBR Green DNA, 72 h; series mostly up to 28.7 µM
Results filed as inconclusive are left out. The source made the active and inactive calls. Calls come from the whole dose curve; as a rule, active = well fitted inhibition curve with a large enough effect; inconclusive = small, poorly fitted or top-dose-only effect; inactive = flat fitted curve, though single readings scatter.
Use one of these outcomes when replying: active, inactive

Some solved cases for reference:
{"columns": ["Molecule", "Assayed target", "Class"],
 "data": [
  ["CC1=C(/C=C/C(C)=C/C=C/C(C)=C/C(=O)O)C(C)(C)CCC1", "CP185", "inactive"],
  ["CC1(C)OC(=O)NC1=O", "CP185", "inactive"],
  ["CC(=O)NC(Cc1ccccc1)C(=O)O (stereo not given)", "CP185", "inactive"],
  ["COc1ccccc1O", "CP185", "inactive"],
  ["NC(=O)NNc1ccccc1", "CP185", "inactive"]
]}

In this assay, the call recorded for O=Cc1ccccc1C=O was what?
inactive

In this assay, the call recorded for Oc1cn2c(n1)Nc1ccc(Cl)c(Cl)c1C2 was what?
inactive

In this assay, the call recorded for CNCCC(Oc1ccc(C(F)(F)F)cc1)c1ccccc1 (stereo not given) was what?
inactive

In this assay, the call recorded for OCc1cc(C(O)CNCCCCCCOCCCCc2ccccc2)ccc1O (stereo not given) was what?
inactive

In this assay, the call recorded for OCC(O)CN1CCN(c2ccccc2)CC1 (stereo not given) was what?
inactive

In this assay, the call recorded for CNC(=O)Oc1ccc2c(c1)[C@]1(C)CCN(C)[C@@H]1N2C was what?
active

In this assay, the call recorded for CCOC(CN1CCN(CC(C)C(=O)c2ccccc2)CC1)c1ccccc1 (stereo not given) was what?
inactive

In this assay, the call recorded for CCCCc1ncc(/C=C(\Cc2cccs2)C(=O)O)n1Cc1ccc(C(=O)O)cc1 was what?
inactive

In this assay, the call recorded for C[C@](N)(Cc1ccc(O)cc1)C(=O)O was what?
inactive

In this assay, the call recorded for CCOc1nc2cccc(C(=O)O)c2n1Cc1ccc(-c2ccccc2-c2nn[nH]n2)cc1 was what?
inactive

In this assay, the call recorded for CC12CCC(CC1)C(C)(C)O2 was what?
inactive

In this assay, the call recorded for CC(=O)Oc1ccc(C2(c3ccc(OC(C)=O)cc3)C(=O)Nc3ccccc32)cc1 was what?
inactive

In this assay, the call recorded for Cc1cc(C(C#N)c2ccc(Cl)cc2)c(Cl)cc1NC(=O)c1cc(I)cc(I)c1O (stereo not given) was what?
inactive

In this assay, the call recorded for C=Cc1c(C)c2cc3[nH]c(cc4nc(cc5nc(cc1[nH]2)C(C)=C5CCC(=O)O)C(CCC(=O)O)=C4C)c(C)c3C=C was what?
inactive

In this assay, the call recorded for NS(=O)(=O)c1cc2c(cc1Cl)NC(CSCc1ccccc1)=NS2(=O)=O was what?
inactive

In this assay, the call recorded for CCCCC(CC)COC(=O)c1ccccc1O (stereo not given) was what?
inactive

In this assay, the call recorded for CC[C@@]1(c2ccccc2)NC(=O)N(C)C1=O was what?
inactive

In this assay, the call recorded for CN1CCN(C2Cc3ccccc3Sc3ccc(Cl)cc32)CC1 (stereo not given) was what?
inactive

In this assay, the call recorded for C[C@@H]1CN(c2c(F)c(F)c3c(=O)c(C(=O)O)cn(C4CC4)c3c2F)C[C@H](C)N1 was what?
inactive

In this assay, the call recorded for Cc1cc(O)cc2c1O[C@](C)(CCC[C@H](C)CCC[C@H](C)CCCC(C)C)CC2 was what?
inactive

In this assay, the call recorded for CCOC(=O)[C@H](CCc1ccccc1)N[C@@H](C)C(=O)N1C(=O)N(C)C[C@H]1C(=O)O was what?
inactive

In this assay, the call recorded for CC1=C(CC(=O)O)c2cc(F)ccc2/C1=C\c1ccc(S(C)=O)cc1 (stereo not given) was what?
inactive

In this assay, the call recorded for O=S(=O)(O)c1cc(I)c(O)c2ncccc12 was what?
inactive

In this assay, the call recorded for CCC(=O)c1ccc(O)cc1 was what?
inactive
